# MEASUREMENT_PROTOCOL: physchem
# STATED_CONDITIONS: pH 7.4, aqueous buffer, thermodynamic from solid
ENDPOINT_NAME: solubility thermodynamic at 24 h

Summary for this molecule, C[C@]12CCC3c4ccc(OCOP(=O)(O)O)cc4C[C@@H](CCCCCCCCC[S+]([O-])CCCC(F)(F)C(F)(F)F)[C@H]3[C@@H]1CC[C@@H]2O (stereo partly shown) : solubility thermodynamic at 24 h is > 15 mg/mL

----------
# MEASUREMENT_PROTOCOL: Kinetic solubility (Solubility Test Procedure I)
# STATED_CONDITIONS: kinetic aqueous solubility at pH 7.4
Counter-ions that a name gives are not always drawn.
ENDPOINT_NAME: Increase in solubility compare to fulvestrant (Fold)
The response must be a number in Fold with no trailing unit.

Summary for this compound, CN1CCN(C(=O)Oc2ccc3c(c2)C[C@@H](CCCCCCCCC[S+]([O-])CCCC(F)(F)C(F)(F)F)[C@@H]2[C@@H]3CC[C@]3(C)[C@@H](O)CC[C@@H]23)CC1 (some centres unmarked) : Increase in solubility compare to fulvestrant (Fold) is 97

Summary for this compound, CCOP(=O)(OCC)Oc1ccc2c(c1)C[C@@H](CCCCCCCCC[S+]([O-])CCCC(F)(F)C(F)(F)F)[C@@H]1[C@@H]2CC[C@]2(C)[C@@H](O)CC[C@@H]12 (some centres unmarked) : Increase in solubility compare to fulvestrant (Fold) is 35

Summary for this compound, C[C@]12CC[C@@H]3c4ccc(OC(=O)CN5CCCCC5)cc4C[C@@H](CCCCCCCCC[S+]([O-])CCCC(F)(F)C(F)(F)F)[C@H]3[C@@H]1CC[C@@H]2O (some centres unmarked) [Example 3, hydrochloride] : Increase in solubility compare to fulvestrant (Fold) is 669

Summary for this compound, C[C@]12CC[C@@H]3c4ccc(OC(=O)N5CCC(N6CCCCC6)CC5)cc4C[C@@H](CCCCCCCCC[S+]([O-])CCCC(F)(F)C(F)(F)F)[C@H]3[C@@H]1CC[C@@H]2O (some centres unmarked) : Increase in solubility compare to fulvestrant (Fold) is 22

Summary for this compound, C[C@]12CC[C@@H]3c4ccc(OC(=O)c5ccccc5O)cc4C[C@@H](CCCCCCCCC[S+]([O-])CCCC(F)(F)C(F)(F)F)[C@H]3[C@@H]1CC[C@@H]2O (some centres unmarked) : Increase in solubility compare to fulvestrant (Fold) is 562

Where do the numbers come from? From patent US20210253626A1.
